Molecular target: Stp1 (UniProt B3LFK1)
Sequence: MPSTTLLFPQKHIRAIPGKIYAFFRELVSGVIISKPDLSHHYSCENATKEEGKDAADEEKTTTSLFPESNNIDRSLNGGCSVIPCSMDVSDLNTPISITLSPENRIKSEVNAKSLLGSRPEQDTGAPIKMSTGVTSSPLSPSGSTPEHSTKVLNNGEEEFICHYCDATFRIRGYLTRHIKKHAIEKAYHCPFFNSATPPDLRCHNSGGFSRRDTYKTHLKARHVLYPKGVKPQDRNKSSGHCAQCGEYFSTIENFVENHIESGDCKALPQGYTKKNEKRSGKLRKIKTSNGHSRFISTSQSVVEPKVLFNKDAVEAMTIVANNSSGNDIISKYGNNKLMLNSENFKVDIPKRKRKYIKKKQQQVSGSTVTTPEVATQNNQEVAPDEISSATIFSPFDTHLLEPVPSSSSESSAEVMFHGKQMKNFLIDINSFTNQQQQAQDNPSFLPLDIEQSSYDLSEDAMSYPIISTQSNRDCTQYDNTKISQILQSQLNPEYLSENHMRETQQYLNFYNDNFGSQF
Assay: PBM E-score (8-mer binding enrichment) (E-score (-0.5 to 0.5)); higher = stronger / more preferred TF binding
Conditions: protein concentration: 200 nM; construct: GST-full length
Over roughly 33,000 sequences, “E-score (-0.5 to 0.5)” has its median near -0.016; the highest 2% begin near 0.32. Only a selection was taken, and the highest values are over-represented in it overall.
Tick T if PBM E-score is 0.1 or greater. Tick F if PBM E-score is less than 0.1.

INSERT INTO results (seq_text, target_of_assay, class_name) VALUES
  ('AGTACGGC', 'Stp1 (UniProt B3LFK1)', 'T'),
  ('CCCAATCA', 'Stp1 (UniProt B3LFK1)', 'F'),
  ('AGATCCTC', 'Stp1 (UniProt B3LFK1)', 'F'),
  ('CACTAAAA', 'Stp1 (UniProt B3LFK1)', 'T'),
  ('CGATCGAG', 'Stp1 (UniProt B3LFK1)', 'F'),
  ('GGGCGGAA', 'Stp1 (UniProt B3LFK1)', 'F'),
  ('CGTACGGA', 'Stp1 (UniProt B3LFK1)', 'T'),
  ('GGCGGGCA', 'Stp1 (UniProt B3LFK1)', 'F'),
  ('CTGAGCGC', 'Stp1 (UniProt B3LFK1)', 'F'),
  ('GGACTCTA', 'Stp1 (UniProt B3LFK1)', 'F'),
  ('ACGCGCGC', 'Stp1 (UniProt B3LFK1)', 'T'),
  ('GGGCGGCA', 'Stp1 (UniProt B3LFK1)', 'T'),
  ('CCGCGCGA', 'Stp1 (UniProt B3LFK1)', 'T'),
  ('AGGCGGAA', 'Stp1 (UniProt B3LFK1)', 'F'),
  ('ACGCGTGC', 'Stp1 (UniProt B3LFK1)', 'T'),
  ('GCCTTTCC', 'Stp1 (UniProt B3LFK1)', 'T'),
  ('ACGCGCGG', 'Stp1 (UniProt B3LFK1)', 'T'),
  ('GAGCTCTA', 'Stp1 (UniProt B3LFK1)', 'F'),
  ('CTTGATCC', 'Stp1 (UniProt B3LFK1)', 'F'),
  ('GGAGTACA', 'Stp1 (UniProt B3LFK1)', 'F'),
  ('CCGCGTGC', 'Stp1 (UniProt B3LFK1)', 'T'),
  ('CGGCGGAA', 'Stp1 (UniProt B3LFK1)', 'T'),
  ('CGAGGGCG', 'Stp1 (UniProt B3LFK1)', 'F'),
  ('CACCTTTA', 'Stp1 (UniProt B3LFK1)', 'F'),
  ('CTGCAGGC', 'Stp1 (UniProt B3LFK1)', 'F'),
  ('GGGCGGGA', 'Stp1 (UniProt B3LFK1)', 'F'),
  ('AGCCAGGC', 'Stp1 (UniProt B3LFK1)', 'F'),
  ('CCTCCTCG', 'Stp1 (UniProt B3LFK1)', 'F'),
  ('ATTACGGG', 'Stp1 (UniProt B3LFK1)', 'F'),
  ('AGGCGGGA', 'Stp1 (UniProt B3LFK1)', 'F'),
  ('CACGGGCA', 'Stp1 (UniProt B3LFK1)', 'T'),
  ('CTGTCGCA', 'Stp1 (UniProt B3LFK1)', 'F'),
  ('ATTACGGA', 'Stp1 (UniProt B3LFK1)', 'F'),
  ('CGTACGCC', 'Stp1 (UniProt B3LFK1)', 'T'),
  ('GCTTCATA', 'Stp1 (UniProt B3LFK1)', 'F'),
  ('GCTCGCCC', 'Stp1 (UniProt B3LFK1)', 'F'),
  ('GCGCGCGC', 'Stp1 (UniProt B3LFK1)', 'T'),
  ('GATTTAAC', 'Stp1 (UniProt B3LFK1)', 'T'),
  ('CCTCCATA', 'Stp1 (UniProt B3LFK1)', 'F'),
  ('AGCCGGCA', 'Stp1 (UniProt B3LFK1)', 'F'),
  ('GGGCGGTA', 'Stp1 (UniProt B3LFK1)', 'F'),
  ('CGGCGGTA', 'Stp1 (UniProt B3LFK1)', 'T'),
  ('CTGGGAAC', 'Stp1 (UniProt B3LFK1)', 'F'),
  ('CCGCGCGC', 'Stp1 (UniProt B3LFK1)', 'T'),
  ('CACAGTAA', 'Stp1 (UniProt B3LFK1)', 'T'),
  ('ACCTTTCC', 'Stp1 (UniProt B3LFK1)', 'F');
